- target or system: SYK (human) (UniProt P43405)
- procedure text: radiometric filter-binding kinase assay
- protocol conditions: compound 10.0 µM
readout name: residual activity (%)

These recorded examples may help you get a feel for the data.
If you can, please state the reported residual activity value of CC(C)C[C@H](NC(=O)CNC(=O)c1cc(Cl)ccc1Cl)B1OC(=O)CC(CC(=O)O)(C(=O)O)O1 (stereo partly specified) .
66

Which residual activity value belongs to `Cc1ccc(=O)n(-c2ccccc2)c1` ?
103

Fill in the blank: the reported residual activity of `NS(=O)(=O)OC[C@@H]1C[C@@H](n2ccc3c(N[C@H]4CCc5ccccc54)ncnc32)C[C@@H]1O` is ____.
104

Query (molecule): `CCc1cncnc1N1CCN(Cc2nc3cc(C(F)(F)F)ccc3[nH]2)CC1` ; field requested: residual activity
91

Consider the molecule `CNc1nc(-c2ccc3c(N)n[nH]c3c2)cc(N2C[C@@H](C(=O)NC3CCCCC3)CC[C@H]2C)n1` and give its measured residual activity.
105

[1] CC(C)(C#N)c1ccc(N2C(=O)OCc3cnc4ccc(-c5cnc6ccccc6c5)cc4c32)cc1
[2] CN1C(=O)[C@@H](Cc2c[nH]c3ccccc23)NC1=S
[3] O=C(O)c1ccc(-c2c[nH]c3ncc(-c4ccccc4)cc23)cc1C1CCCC1
[4] Cc1ccc(Sc2cnc(Nc3cccc(Br)n3)s2)cc1C(=O)N1CCN(C(=O)CN)CC1
Reorder the items by residual activity, least to greatest. API: response body holds the labels in the requested order.
3, 4, 1, 2
(3: 12%, 4: 28%, 1: 76%, 2: 125%)
